Target: human ether-à-go-go-related gene (hERG) potassium channel (human, UniProt Q12809);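 also: peak tail current of the secondary pulse compared with the same well before compound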
Sequence (Q12809 whole entry, looked up): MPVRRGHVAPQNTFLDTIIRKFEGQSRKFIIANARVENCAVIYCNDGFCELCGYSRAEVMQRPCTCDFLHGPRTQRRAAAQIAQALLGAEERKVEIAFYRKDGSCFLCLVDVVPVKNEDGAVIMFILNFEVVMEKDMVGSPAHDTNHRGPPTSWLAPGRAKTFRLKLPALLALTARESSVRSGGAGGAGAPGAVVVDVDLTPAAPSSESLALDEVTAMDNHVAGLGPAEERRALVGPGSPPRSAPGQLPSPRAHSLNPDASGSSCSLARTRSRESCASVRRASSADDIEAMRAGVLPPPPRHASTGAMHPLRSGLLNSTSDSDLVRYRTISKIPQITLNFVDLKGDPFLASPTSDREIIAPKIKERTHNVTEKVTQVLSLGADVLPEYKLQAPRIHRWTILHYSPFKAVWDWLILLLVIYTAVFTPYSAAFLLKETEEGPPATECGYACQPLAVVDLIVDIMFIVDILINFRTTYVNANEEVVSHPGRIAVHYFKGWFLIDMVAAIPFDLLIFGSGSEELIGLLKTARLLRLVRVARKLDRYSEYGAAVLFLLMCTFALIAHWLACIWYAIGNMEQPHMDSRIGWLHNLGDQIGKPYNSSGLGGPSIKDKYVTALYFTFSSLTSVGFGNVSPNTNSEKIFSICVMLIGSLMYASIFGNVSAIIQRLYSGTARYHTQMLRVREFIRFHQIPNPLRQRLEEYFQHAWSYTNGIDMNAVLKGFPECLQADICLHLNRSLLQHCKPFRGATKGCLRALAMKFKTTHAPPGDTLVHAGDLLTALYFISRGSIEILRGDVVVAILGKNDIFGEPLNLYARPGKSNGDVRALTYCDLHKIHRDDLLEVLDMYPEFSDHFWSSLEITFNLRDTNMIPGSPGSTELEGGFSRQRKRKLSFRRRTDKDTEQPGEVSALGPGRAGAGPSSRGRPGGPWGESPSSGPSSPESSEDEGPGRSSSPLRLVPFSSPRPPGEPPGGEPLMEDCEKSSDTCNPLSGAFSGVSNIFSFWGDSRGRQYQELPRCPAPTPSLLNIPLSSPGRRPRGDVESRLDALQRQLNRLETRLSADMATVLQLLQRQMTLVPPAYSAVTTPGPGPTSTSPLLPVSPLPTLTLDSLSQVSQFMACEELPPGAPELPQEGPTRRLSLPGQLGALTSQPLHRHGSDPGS
Assay: primary screen, population patch clamp on CHO cells stably expressing hERG; higher = less effect of the substance
Protocol: Briefly, Chinese hamster ovary (CHO) cells stably expressing the hERG channel were dislodged from tissue culture flasks and dispensed into PPC plates. […] During the recording, background leak currents were estimated by a 100 ms step to -80 mV from an initial holding potential of -70 mV and subtracted from the subsequent current measurement. The campaign was conducted in two phases using slight differences in recording protocol. […]
The whole screen tested about 310,000 compounds, of which about 14,000 (4.5%) showed an effect of 50% or more. The effect is printed as a negative number. This is one part of a sample in which strong results are shown more often than they occur.
Use -30% as the dividing line for hERG current change (%, negative = inhibition) at 10uM, with the line itself on the True side and lower values as False.

                                    compound  assigned_class
 0        COc1ccc(/C=C2/CCc3ccccc3C2=O)cc1OC            True
 1  COCCn1c(SCC(=O)N2CCCc3ccccc32)nc2cccnc21            True
 2  Cc1ccc2c(c1)C1CN(C)CCC1N2C(=O)CCCN1C(=O)c2cccc3cccc(c23)C1=O (stereo not shown)           False
 3  CC(C)(C)C(=O)OCCn1c(=O)c2cc3c(=O)n(CCOC(=O)C(C)(C)C)c(=O)c3cc2c1=O            True
 4     COCCn1c(SCC(=O)N2CCCCC2)nc2ccccc2c1=O           False
 5  COc1ccc(OCC(=O)N2c3ccc(C)cc3C3CN(C)CCC32)cc1 (stereo not shown)            True
 6  Cc1ccc2c(c1)C1CN(C)CCC1N2C(=O)COc1ccc(N(C)C(=O)c2ccccc2)cc1 (stereo not shown)            True
 7  COCCn1c(SCC(=O)N2CCCc3ccccc32)nc2ccccc2c1=O           False
 8  COc1cccc(-c2nn(-c3ccccc3)cc2CNC(C)Cn2cncn2)c1 (stereo not shown)           False
 9  COc1ccc(CNC(=O)CN2CCC(C(=O)c3ccc(OC)cc3)CC2)cc1           False
10  O=C(c1ccc2c(=O)n(Cc3ccccc3Cl)c(=S)[nH]c2c1)N1CCCC1            True
11  Cc1ccc2c(c1)C1CN(C)CCC1N2C(=O)COc1ccccc1F (stereo not shown)            True
12  CC(C)(O)c1ccc2c(c1)CCC1C(C)(C(=O)O)CCCC21C (stereo not shown)            True
13               COc1cc(OC)c(C2SCCS2)c(OC)c1            True
14  COc1ccc(C(=O)NC2CCN(CC(=O)NCc3ccccc3)CC2)cc1            True
15  CC1CCCN(C(=O)Cn2nnc(-c3ccccc3F)n2)C1 (stereo not shown)            True
16  Cc1ccc2c(c1)C1CN(C)CCC1N2C(=O)Cn1nnc(-c2ccccc2F)n1 (stereo not shown)           False
17  O=C(Nc1ccc(-n2ccnc2P(=O)(O)c2ccccc2)cc1)c1ccccc1Br            True
18  COCCn1c(SCC(=O)N2CCC(C)CC2)nc2ccccc2c1=O           False
19  O=C(CN1CCC(C(=O)c2ccc(F)cc2)CC1)Nc1ccc(F)cc1           False
20       O=S(=O)(NCc1cccnc1)c1ccc2c(c1)OCCO2            True
21  CCN(CC)c1ccc(/C=N/Nc2nc(C)cc(C)n2)c(O)c1            True
22  COc1cc2c(cc1OC)C(C)NCC2.Cl (stereo not shown)            True
23  CC(=O)c1ccc(NC(=O)CN2CCC(C(=O)c3ccc(F)cc3)CC2)cc1            True
24      Cn1c(O)c(C=NCCN2CCNCC2)c(=O)[nH]c1=O            True
25  Cc1ccc(-n2cc(CN(C)Cc3nccn3C)c(-c3cccc(C)c3)n2)cc1            True
26  Cc1ccc(-n2cc(CNCCCn3cccn3)c(-c3cccc(C)c3)n2)cc1           False
27  Cc1ccc(NC(=O)CN2CCC(C(=O)c3ccc(F)cc3)CC2)cc1           False
28  O=C(CSc1nc2ccsc2c(=O)n1Cc1ccccc1)NCC1CCCO1 (stereo not shown)            True
29  O=C(O)CCCCCn1c(SCC(=O)N2CCCC2)nc2ccsc2c1=O            True
30  O=C(COc1ccc(F)cc1Cl)Nc1ccc(N2CCOCC2)cc1N1CCOCC1            True
31  COc1nc(OC)nc(N2CCC(C(=O)NCc3ccc(F)cc3)CC2)n1           False
32  CCn1c(SCC(=O)N2CCCCC2C)nc2ccsc2c1=O (stereo not shown)            True
33  COc1ccc(C(=O)C2CCN(CC(=O)NCc3ccccc3)CC2)cc1           False
34  Cc1ccc(-n2cc(CN3CCN(c4ccccn4)CC3)c(-c3ccc(F)cc3)n2)cc1            True
35      CCn1nc(C)c(NS(=O)(=O)c2ccc(C)cc2)c1C            True
36  Cc1cc(C)cc(C(=O)NC(CC(N)=O)c2ccc(NC3CCCC3)c([N+](=O)[O-])c2)c1 (stereo not shown)            True
37        c1cc2c(cc1C1=NNC(=NC3CC3)SC1)OCCO2            True
38  CCn1c(SCC(=O)N2CCCc3ccccc32)nc2ccccc2c1=O            True
